measuredOn: HIV-1 protease (Human immunodeficiency virus type 1 group M subtype B, UniProt P04585)
Could you please report measured IC50 for the items listed next?

*Q* For the record CC(Oc1ccccc1)C(=O)NC(Cc1ccccc1)C(O)C1SCCN1S(=O)(=O)c1ccc(F)cc1 (stereo not drawn) , what value of IC50 is listed for HIV-1 protease (Human immunodeficiency virus type 1 group M subtype B, UniProt P04585)?
*A* > 20 µM

*Q* Quick one: CC(C)(C)OC(=O)NC(Cc1ccccc1)C(O)C1SCCN1S(=O)(=O)c1ccc(N)cc1 (stereo not drawn)
*A* < 5 µM

*Q* Quick one: O=C(COc1cccc2ccccc12)NC(Cc1ccccc1)C(O)C1SCCN1S(=O)(=O)c1ccc(F)cc1 (stereo not drawn)
*A* > 20 µM

*Q* Quick one: O=C(NC(Cc1ccccc1)C(O)C1SCCN1S(=O)(=O)c1ccc(F)cc1)OC1CCOC1 (stereo not drawn)
*A* < 5 µM

*Q* Quick one: CC(C)(C)OC(=O)NC(Cc1ccccc1)C(O)C1SCCN1S(=O)(=O)c1ccc([N+](=O)[O-])cc1 (stereo not drawn)
*A* < 5 µM

*Q* Quick one: Cc1c(O)cccc1C(=O)NC(Cc1ccccc1)C(O)C1SCCN1S(=O)(=O)c1ccc(N)cc1 (stereo not drawn)
*A* < 5 µM

*Q* Quick one: O=C(COc1ccc2ccccc2c1)NC(Cc1ccccc1)C(O)C1SCCN1S(=O)(=O)c1ccc(F)cc1 (stereo not drawn)
*A* > 20 µM

*Q* Quick one: Cc1cccc(C)c1OCC(=O)NC(Cc1ccccc1)C(O)C1SCCN1S(=O)(=O)c1ccc(F)cc1 (stereo not drawn)
*A* < 5 µM

*Q* Quick one: CC(C)(C)OC(=O)NC(Cc1ccccc1)C(O)C1SCCN1S(=O)(=O)c1ccc(OC(F)(F)F)cc1 (stereo not drawn)
*A* 5 to 20 µM

*Q* Quick one: CC(C)c1ccc(S(=O)(=O)N2CCSC2C(O)C(Cc2ccccc2)NC(=O)OC(C)(C)C)cc1 (stereo not drawn)
*A* 5 to 20 µM

*Q* Quick one: CC(C)(C)OC(=O)NC(Cc1ccccc1)C(O)C1SCCN1S(=O)(=O)c1ccccc1 (stereo not drawn)
*A* < 5 µM

*Q* Quick one: COCCOC(=O)NC(Cc1ccccc1)C(O)C1SCCN1S(=O)(=O)c1ccc(F)cc1 (stereo not drawn)
*A* < 5 µM

---

measuredOn: HIV-1 protease (Human immunodeficiency virus type 1 group M subtype B, UniProt P04585)
pIC50: −log10 of the molar value.
parameter: pIC50

*Q* For the record O=C(COc1ccccc1)NC(Cc1ccccc1)C(O)C1SCCN1S(=O)(=O)c1ccc(F)cc1 (stereo not shown) [EP-001163] , what value of pIC50 is listed for HIV-1 protease (Human immunodeficiency virus type 1 group M subtype B, UniProt P04585)?
*A* < 4.70

*Q* Quick one: CC(C)(C)OC(=O)NC(Cc1ccccc1)C(O)C1SCCN1S(=O)(=O)c1cccc2cccnc12 (stereo not shown) [EP-001153]
*A* 4.70 to 5.30

*Q* Quick one: Cc1c(O)cccc1C(=O)NC(Cc1ccccc1)C(O)C1SCCN1S(=O)(=O)c1ccc(F)cc1 (stereo not shown) [EP-001161]
*A* > 5.30

*Q* Quick one: O=C(Cc1ccccc1)NC(Cc1ccccc1)C(O)C1SCCN1S(=O)(=O)c1ccc(F)cc1 (stereo not shown) [EP-001171]
*A* < 4.70

The reported measurements were obtained from patent US6673821B2.
